- tested_system: Inadl_3, Q8NI35
- Sequence (Q8NI35 359-469): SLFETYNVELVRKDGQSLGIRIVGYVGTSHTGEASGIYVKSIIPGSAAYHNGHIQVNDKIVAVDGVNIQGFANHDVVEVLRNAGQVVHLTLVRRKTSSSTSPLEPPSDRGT
- protocol_description: holdup assay
- Set-up: key: below the threshold = too weak to quantify, mostly under pKd 3.1 to 4
- protocol_conditions: plain residues with an end cap or a label only (N-terminal biotin on a linker: ado-ado)
Below, each of the binders is paired with its reported pKd value.
metric: pKd

- QSARLWETSI [ADAM22, Q9P0K1]: 4.92
- DDEDRLVIEI [ZNF831, Q5JPB2]: 4.8
- ETQVTAETVI [TMEM225B, P0DP42]: 4.26
- QMNQTLPVQV [EPHB3, P54753]: 3.55
- TACCHSETVV [TGFA, P01135]: 4.81
